Sourced from paper PMC7332124

System: HT-29
Assay: MTT cytotoxicity assay
Type: cell-based, human
Conditions: Homo sapiens, HT-29 colorectal cancer, 72 h, read-out: In vitro Inhibitory Concentration (IC50)
pIC50: −log10 of the molar value.
readoutName: pIC50

compound: Fc1ccc(C2C3=C(CCCC3)N=C3C=CC(Cl)=CN32)cc1 (stereo not shown) [Compound 4g]
studyTarget: HT-29
readoutName: pIC50
measurementQualifier: =
resultNumber: 4.38
//
compound: COc1ccc(C2C3=C(CCCC3)N=C3C=CC=CN32)cc1 (stereo not shown) [Compound 4d]
studyTarget: HT-29
readoutName: pIC50
measurementQualifier: <
resultNumber: 4.52
//
compound: C1=CC2=NC3=C(CCCC3)C(c3ccccc3)N2C=C1 (stereo not shown) [Compound 4a]
studyTarget: HT-29
readoutName: pIC50
measurementQualifier: <
resultNumber: 4.52
//
compound: ClC1=CN2C(=NC3=C(CCCC3)C2c2ccc(Cl)cc2)C=C1 (stereo not shown) [Compound 4f]
studyTarget: HT-29
readoutName: pIC50
measurementQualifier: =
resultNumber: 4.81
//
compound: C1=CC2=NC3=C(CCCC3)C(c3c[nH]c4ccccc34)N2C=C1 (stereo not shown) [Compound 4j]
studyTarget: HT-29
readoutName: pIC50
measurementQualifier: =
resultNumber: 5.14
//
compound: O=[N+]([O-])c1ccc(C2C3=C(CCCC3)N=C3C=CC=CN32)cc1 (stereo not shown) [Compound 4c]
studyTarget: HT-29
readoutName: pIC50
measurementQualifier: <
resultNumber: 4.52
//
compound: C1=CC2=NC3=C(CCCC3)C(c3cn(Cc4ccccc4)c4ccccc34)N2C=C1 (stereo not shown) [Compound 4i]
studyTarget: HT-29
readoutName: pIC50
measurementQualifier: =
resultNumber: 4.94

----------
System: A549
Experiment: MTT cytotoxicity assay
Format: cell-based, human
Conditions: Homo sapiens; A549 adenocarcinoma (lung); MTT, 72 h; read-out: In vitro Inhibitory Concentration (IC50)
The entries below are paired with their reported IC50.
readoutName: IC50 (µM)

molecule: O=[N+]([O-])c1ccc(C2C3=C(CCCC3)N=C3C=CC=CN32)cc1 (stereo not shown) [Compound 4c]
readoutName: IC50
measurementQualifier: >
resultNumber: 30
//
molecule: C1=CC2=NC3=C(CCCC3)C(c3ccccc3)N2C=C1 (stereo not shown) [Compound 4a]
readoutName: IC50
measurementQualifier: >
resultNumber: 30
//
molecule: Fc1ccc(C2C3=C(CCCC3)N=C3C=CC(Cl)=CN32)cc1 (stereo not shown) [Compound 4g]
readoutName: IC50
measurementQualifier: =
resultNumber: 25.5
//
molecule: C1=CC2=NC3=C(CCCC3)C(c3cn(Cc4ccccc4)c4ccccc34)N2C=C1 (stereo not shown) [Compound 4i]
readoutName: IC50
measurementQualifier: =
resultNumber: 4.57
//
molecule: ClC1=CN2C(=NC3=C(CCCC3)C2c2ccc(Cl)cc2)C=C1 (stereo not shown) [Compound 4f]
readoutName: IC50
measurementQualifier: =
resultNumber: 12.8
//
molecule: COc1ccc(C2C3=C(CCCC3)N=C3C=CC=CN32)cc1 (stereo not shown) [Compound 4d]
readoutName: IC50
measurementQualifier: >
resultNumber: 30
//
molecule: C1=CC2=NC3=C(CCCC3)C(c3c[nH]c4ccccc34)N2C=C1 (stereo not shown) [Compound 4j]
readoutName: IC50
measurementQualifier: =
resultNumber: 8.98
